This section presents compounds with their documented inhibition at 1 µM values.
assay_target: JAK3 (Homo sapiens, UniProt P52333)
Construct: purchased Invitrogen
Sequence (P52333 whole entry): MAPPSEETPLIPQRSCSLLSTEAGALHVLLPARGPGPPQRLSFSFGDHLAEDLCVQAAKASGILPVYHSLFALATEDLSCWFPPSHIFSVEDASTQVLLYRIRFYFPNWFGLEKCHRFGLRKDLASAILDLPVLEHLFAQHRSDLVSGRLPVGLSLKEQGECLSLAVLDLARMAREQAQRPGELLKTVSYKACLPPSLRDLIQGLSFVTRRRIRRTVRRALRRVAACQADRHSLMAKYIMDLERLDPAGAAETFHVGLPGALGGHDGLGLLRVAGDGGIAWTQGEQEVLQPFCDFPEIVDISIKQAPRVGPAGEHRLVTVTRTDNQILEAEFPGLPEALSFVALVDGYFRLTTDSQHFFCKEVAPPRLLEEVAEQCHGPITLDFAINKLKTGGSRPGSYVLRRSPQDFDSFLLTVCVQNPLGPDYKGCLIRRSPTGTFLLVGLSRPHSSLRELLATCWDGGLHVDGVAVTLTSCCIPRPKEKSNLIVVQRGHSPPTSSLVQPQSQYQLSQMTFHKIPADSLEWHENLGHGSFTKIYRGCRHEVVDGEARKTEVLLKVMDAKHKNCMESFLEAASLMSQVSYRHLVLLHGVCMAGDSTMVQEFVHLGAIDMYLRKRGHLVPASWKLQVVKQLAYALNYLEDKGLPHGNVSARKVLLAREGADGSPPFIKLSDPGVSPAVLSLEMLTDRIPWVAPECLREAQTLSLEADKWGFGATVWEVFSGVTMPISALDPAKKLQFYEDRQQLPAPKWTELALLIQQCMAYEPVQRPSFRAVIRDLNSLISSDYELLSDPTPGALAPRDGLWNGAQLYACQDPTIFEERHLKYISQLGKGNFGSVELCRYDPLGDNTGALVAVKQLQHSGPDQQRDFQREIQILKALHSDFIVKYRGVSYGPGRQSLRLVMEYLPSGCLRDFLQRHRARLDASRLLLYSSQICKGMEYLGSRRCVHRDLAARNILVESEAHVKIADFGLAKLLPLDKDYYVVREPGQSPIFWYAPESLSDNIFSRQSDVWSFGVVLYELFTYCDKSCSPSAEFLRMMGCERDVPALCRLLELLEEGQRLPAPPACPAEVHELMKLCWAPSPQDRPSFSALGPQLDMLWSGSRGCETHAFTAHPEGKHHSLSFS
experiment_description: JAK3 enzyme inhibition test (LANCE method)
Assay type: biochemical
assay_conditions: 1 μM test compound; read-out: JAK3 enzyme inhibitory activity (%, 1 μM)

compound: CC(=O)N1CCN(c2cc(-c3cn([C@@H](C)C(C)C)c(=O)c4c(N)n[nH]c34)nn2C)CC1
unit_label: %
inhibition at 1 µM: 99

compound: C[C@@H](C1CC1)n1cc(-c2cc(C(C)(C)O)n(C)n2)c2[nH]nc(N)c2c1=O
unit_label: %
inhibition at 1 µM: 100

compound: CN(C)C[C@H]1CCCN1c1cc(-c2cn(C(C3CC3)C3CC3)c(=O)c3c(N)n[nH]c23)nn1C
unit_label: %
inhibition at 1 µM: 99

compound: COC1(c2cc(-c3cn([C@@H](C)C(C)C)c(=O)c4c(N)n[nH]c34)nn2C)CCS(=O)(=O)CC1
unit_label: %
inhibition at 1 µM: 99

compound: Cn1nc(-c2cn(C3CCCC3(C)C)c(=O)c3c(N)n[nH]c23)cc1CN1CCS(=O)(=O)CC1 (racemic) [Example 72]
unit_label: %
inhibition at 1 µM: 100

compound: Cn1nc(-c2cn(C(C3CC3)C3CC3)c(=O)c3c(N)n[nH]c23)cc1N1CCN2CCC[C@@H]2C1
unit_label: %
inhibition at 1 µM: 100

compound: Cn1nc(-c2cn(C(C3CC3)C3CC3)c(=O)c3c(N)n[nH]c23)cc1C1CC1
unit_label: %
inhibition at 1 µM: 100
